target: human OX2 receptor (Homo sapiens); construct: host or cells: CHO RD-HGA16 cells; experiment: OX2R calcium mobilization assay; type: cell-based
Property measured: pEC50
# log scale: pEC50 equals minus log10 of the concentration in mol/L

Item `CCCCCC(=O)NCCNc1cncc(NS(=O)(=O)c2cc(-c3cccc(C(=O)N(C)Cc4ccncc4)c3)ccc2OC)c1` has what recorded pEC50?
7.00

---

test: Metabolic stability in rat liver microsomes (RLM); type: in vitro ADME; conditions: rat, rat liver microsomes; read-out: t1/2 (RLM)
Property measured: half-life

| Compound | half-life |
| --- | --- |
| COc1ccc(-c2cccc(C(=O)N(C)Cc3ccncc3)n2)cc1S(=O)(=O)Nc1cccc(NCCNC(=O)c2cccc(C)c2)c1 [Compound 59] | 1.8 min |
| COc1ccc(-c2cccc(C(=O)N(C)Cc3ccncc3)c2)cc1S(=O)(=O)Nc1cncc(NCCNC(=O)c2cccc(C)c2)c1 [Compound 61] | 39.7 min |
| COc1ccc(-c2cccc(C(=O)N(C)Cc3ccncc3)c2)cc1S(=O)(=O)Nc1cccc(NCCNC(=O)c2cccc(C)c2)c1 [Compound 38] | 1.9 min |

Item COc1ccc(-c2cccc(C(=O)N(C)C)c2)cc1S(=O)(=O)Nc1cccc(NCCNC(=O)c2ccccc2N(C)C)c1 [Compound 1, reference compound] has what recorded half-life?
< 1 min

---

test: Aqueous solubility at pH 2; type: physicochemical; settings: aqueous medium at pH 2, pH 2, simulated gastric fluid
Parameter: solubility. Scope: all listed entries.

// known answers, use as guide
| Molecule | solubility |
| --- | --- |
| COc1ccc(-c2cccc(C(=O)N(C)C)c2)cc1S(=O)(=O)Nc1cccc(NCCNC(=O)c2ccccc2N(C)C)c1 [Compound 1, reference compound] | > 400 µM |
| COc1ccc(-c2cccc(C(=O)N(C)Cc3ccncc3)c2)cc1S(=O)(=O)Nc1cncc(NCCNC(=O)c2cccc(C)c2)c1 | > 400 µM |
| COc1ccc(-c2cccc(C(=O)N(C)Cc3ccncc3)n2)cc1S(=O)(=O)Nc1cccc(NCCNC(=O)c2cccc(C)c2)c1 | > 400 µM |

Now, please, on to the next molecule.
Item `COc1ccc(-c2cccc(C(=O)N(C)Cc3ccncc3)c2)cc1S(=O)(=O)Nc1cccc(NCCNC(=O)c2cccc(C)c2)c1` has what recorded solubility?
313 µM

---

molecular target: human OX2 receptor (Homo sapiens); construct: host or cells: CHO RD-HGA16 cells; experiment: OX2R calcium mobilization assay; type: cell-based; details: Table 10
Parameter: Emax. Scope: all listed entries.
// units = %; emit number, no label

// known answers, use as guide
| Compound | Uom | Emax |
| --- | --- | --- |
| COc1ccc(-c2cccc(C(=O)N(C)Cc3ccncc3)c2)cc1S(=O)(=O)Nc1cccc(NCCNC(=O)c2cccc(C)c2)c1 | % | 96 |
| COc1ccc(-c2cccc(C(=O)N(C)Cc3ccncc3)c2)cc1S(=O)(=O)Nc1cncc(NCCNC(=O)c2cccc(C)c2)c1 | % | 99 |
| COc1ccc(-c2cccc(C(=O)N(C)C)c2)cc1S(=O)(=O)Nc1cccc(NCCNC(=O)c2ccccc2N(C)C)c1 [Compound 1, reference compound] | % | 94 |

Now, please, on to the next compound.
Item `COc1ccc(-c2cccc(C(=O)N(C)Cc3ccncc3)n2)cc1S(=O)(=O)Nc1cccc(NCCNC(=O)c2cccc(C)c2)c1` has what recorded Emax?
94

---

molecular target: human OX2 receptor (Homo sapiens, UniProt O43614); construct: host or cells: CHO RD-HGA16 cells; test: OX2R calcium mobilization assay; assay type: cell-based; conditions: CHO RD-HGA16 cells expressing human OX2, calcium mobilization; read-out: EC50 (OX2)
Property measured: EC50

Item `COc1ccc(-c2cccc(C(F)(F)F)c2)cc1S(=O)(=O)Nc1cccc(NCCNC(=O)c2ccccc2N(C)C)c1` has what recorded EC50?
> 10 µM

Item `COc1ccc(-c2cccc(C(C)(C)C)c2)cc1S(=O)(=O)Nc1cccc(NCCNC(=O)c2ccccc2N(C)C)c1` has what recorded EC50?
> 10 µM

---

target: σ1 (Homo sapiens)
Sequence (Q99720 whole entry): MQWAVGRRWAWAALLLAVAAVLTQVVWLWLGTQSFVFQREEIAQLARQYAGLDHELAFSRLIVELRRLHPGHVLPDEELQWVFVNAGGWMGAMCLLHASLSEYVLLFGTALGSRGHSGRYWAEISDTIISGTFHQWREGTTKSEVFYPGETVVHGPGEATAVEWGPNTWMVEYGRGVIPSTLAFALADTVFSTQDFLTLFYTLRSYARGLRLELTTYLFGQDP
Property measured: Ki (µM)
// units = µM; emit number, no label

Item COc1ccc(-c2cccc(C(=O)N(C)C)c2)cc1S(=O)(=O)Nc1cccc(NCCNC(=O)c2ccccc2N(C)C)c1 [Compound 1, reference compound] has what recorded Ki?
2.5

---

Target: OX1R (Homo sapiens)
Sequence (O43613 1-425): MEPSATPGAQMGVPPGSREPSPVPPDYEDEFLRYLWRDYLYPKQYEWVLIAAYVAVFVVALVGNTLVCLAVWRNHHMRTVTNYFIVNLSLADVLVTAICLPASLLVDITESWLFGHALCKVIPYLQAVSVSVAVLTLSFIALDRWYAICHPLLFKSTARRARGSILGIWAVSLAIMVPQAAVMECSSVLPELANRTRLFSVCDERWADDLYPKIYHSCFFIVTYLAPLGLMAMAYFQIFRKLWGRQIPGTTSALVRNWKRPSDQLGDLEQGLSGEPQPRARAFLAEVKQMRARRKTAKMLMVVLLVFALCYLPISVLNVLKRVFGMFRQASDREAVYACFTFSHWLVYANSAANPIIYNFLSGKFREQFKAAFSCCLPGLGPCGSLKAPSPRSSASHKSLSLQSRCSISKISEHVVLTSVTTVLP
Experiment: OX1R calcium mobilization assay
Type: cell-based
Parameters: host or cells: CHO RD-HGA16 cells
Conditions: ratio of OX1 to OX2 potency value
Property measured: OX1/OX2
// response body must contain only the number

| Compound smiles | System | OX1/OX2 |
| --- | --- | --- |
| COc1ccc(-c2cccc(C(=O)N(C)c3ccccn3)c2)cc1S(=O)(=O)Nc1cccc(NCCNC(=O)c2cccc(C)c2)c1 | OX1R (Homo sapiens) | 4.69 |
| CCC(=O)NCCNc1cncc(NS(=O)(=O)c2cc(-c3cccc(C(=O)N(C)Cc4ccncc4)c3)ccc2OC)c1 | OX1R (Homo sapiens) | 0.48 |
| COc1ccc(-c2cccc(C(=O)N(C)CCc3ccccn3)c2)cc1S(=O)(=O)Nc1cccc(NCCNC(=O)c2cccc(C)c2)c1 | OX1R (Homo sapiens) | 2.78 |
| CCN(CC)C(=O)c1cccc(-c2ccc(OC)c(S(=O)(=O)Nc3cccc(NCCNC(=O)c4ccccc4N(C)C)c3)c2)c1 | OX1R (Homo sapiens) | 3.32 |
| CCCC(=O)NCCNc1cncc(NS(=O)(=O)c2cc(-c3cccc(C(=O)N(C)Cc4ccncc4)c3)ccc2OC)c1 | OX1R (Homo sapiens) | 0.60 |

Item `CCCCC(=O)NCCNc1cncc(NS(=O)(=O)c2cc(-c3cccc(C(=O)N(C)Cc4ccncc4)c3)ccc2OC)c1` has what recorded OX1/OX2?
0.33

Item `CCCCCC(=O)NCCNc1cncc(NS(=O)(=O)c2cc(-c3cccc(C(=O)N(C)Cc4ccncc4)c3)ccc2OC)c1` has what recorded OX1/OX2?
0.33

Item `COc1ccc(-c2cccc(C(=O)N(C)Cc3ccncc3)c2)cc1S(=O)(=O)Nc1cccc(NCCNC(=O)c2cccc(C)c2)c1` has what recorded OX1/OX2?
1.0

Item `COc1ccc(-c2cccc(C(=O)N(C)Cc3ccncc3)c2)cc1S(=O)(=O)Nc1cncc(NCCNC(=O)C(C)C)c1` has what recorded OX1/OX2?
0.46

---

Target: UniProt O43613
Sequence (O43613 1-425): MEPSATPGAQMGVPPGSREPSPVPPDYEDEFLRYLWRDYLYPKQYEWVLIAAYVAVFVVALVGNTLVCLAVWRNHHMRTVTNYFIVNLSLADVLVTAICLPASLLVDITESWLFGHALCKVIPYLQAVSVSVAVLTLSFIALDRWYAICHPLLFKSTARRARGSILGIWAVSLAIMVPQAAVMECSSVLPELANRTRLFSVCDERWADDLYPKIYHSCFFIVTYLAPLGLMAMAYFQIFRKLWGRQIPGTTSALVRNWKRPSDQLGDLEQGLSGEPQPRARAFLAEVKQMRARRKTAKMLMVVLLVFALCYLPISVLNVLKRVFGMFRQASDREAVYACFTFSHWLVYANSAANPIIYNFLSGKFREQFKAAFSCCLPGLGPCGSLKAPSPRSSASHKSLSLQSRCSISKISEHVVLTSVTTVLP
Experiment: OX1R calcium mobilization assay
Type: cell-based
Design: host or cells: CHO RD-HGA16 cells
Settings: ratio of OX1 to OX2 potency value
Property measured: OX1/OX2
// response body must contain only the number

| Compound smiles | OX1/OX2 |
| --- | --- |
| COc1ccc(-c2cccc(C(=O)N(C)Cc3ccncc3)c2)cc1S(=O)(=O)Nc1cncc(NCCNC(=O)CC2CCCC2)c1 | 0.57 |

Now, please, on to the next molecule.
Item `COc1ccc(-c2cccc(C(=O)N(C)Cc3ccncc3)c2)cc1S(=O)(=O)Nc1cncc(NCCNC(=O)C2CCCCC2)c1` has what recorded OX1/OX2?
0.44

---

Parameter: pEC50. Scope: all listed entries.
Target: human OX2 receptor (Homo sapiens)
Construct: host or cells: CHO RD-HGA16 cells
Sequence (O43614 1-444): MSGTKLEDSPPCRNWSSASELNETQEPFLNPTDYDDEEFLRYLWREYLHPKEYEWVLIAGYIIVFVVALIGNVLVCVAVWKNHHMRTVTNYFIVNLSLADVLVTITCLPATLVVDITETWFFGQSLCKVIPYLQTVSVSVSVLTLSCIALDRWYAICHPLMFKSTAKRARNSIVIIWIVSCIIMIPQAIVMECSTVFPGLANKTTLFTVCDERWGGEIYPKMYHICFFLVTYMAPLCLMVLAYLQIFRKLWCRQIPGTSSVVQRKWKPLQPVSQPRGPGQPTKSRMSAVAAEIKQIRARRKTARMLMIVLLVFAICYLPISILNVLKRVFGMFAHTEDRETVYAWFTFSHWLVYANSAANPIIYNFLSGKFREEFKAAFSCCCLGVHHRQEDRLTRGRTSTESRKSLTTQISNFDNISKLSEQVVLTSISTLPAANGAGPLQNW
Assay: OX2R calcium mobilization assay
Format: cell-based
Conditions: CHO RD-HGA16 cells expressing human OX2, calcium mobilization; read-out: EC50 (OX2)
pEC50: −log10 of the molar value.

Item COc1ccc(-c2cccc(C(C)C)c2)cc1S(=O)(=O)Nc1cccc(NCCNC(=O)c2ccccc2N(C)C)c1 [Compound 6] has what recorded pEC50?
< 5.00

Item COc1ccc(-c2cccc(N(C)C)c2)cc1S(=O)(=O)Nc1cccc(NCCNC(=O)c2ccccc2N(C)C)c1 [Compound 7] has what recorded pEC50?
5.67

Item COc1ccc(-c2cccc(C(=O)N(C)C)c2)cc1S(=O)(=O)Nc1cccc(N2CCN(C(=O)c3ccccc3N(C)C)CC2)c1 [Compound 17] has what recorded pEC50?
< 5.00

Item COc1ccc(-c2cccc(C(=O)N(C)C)c2)cc1S(=O)(=O)Nc1cccc(N2CCN(C(=O)c3cccc(C)c3)CC2)c1 [Compound 18] has what recorded pEC50?
< 5.00

Item CCCN(CCC)c1cccc(-c2ccc(OC)c(S(=O)(=O)Nc3cccc(NCCNC(=O)c4ccccc4N(C)C)c3)c2)c1 [Compound 9] has what recorded pEC50?
< 5.00

Item COc1ccc(-c2cccc(C(=O)N3CCCC3)c2)cc1S(=O)(=O)Nc1cccc(NCCNC(=O)c2ccccc2N(C)C)c1 [Compound 3] has what recorded pEC50?
6.60
